Settings: 298.15 K; 101.33 kPa; Liquid

smiles.repr	mass density, kg/m3
ClCCBr	1727.01
BrCBr	2478.36
ClCCCl	1246.34
ClCBr	1924.55
CCCO	799.74
